# System: Pharbitis purpurea (PHBPU)
# MEASUREMENT_NOTES: E. Herbicidal post-emergence efficacy, PHBPU
# Type: in vivo
# RECORDED_CONDITIONS: application rate 80 g/ha
# Experimental: Seeds of monocotyledonous and dicotyledonous weeds and crop plants were placed in sandy loam in plastic or organic planting pots, covered with soil and cultivated in a greenhouse under controlled growth conditions. 2 to 3 weeks after sowing, the test plants were treated at the one-leaf stage. […]
ASSAY_ENDPOINT: Post-emergence efficacy against PHBPU in % (%)
Answers are plain numbers, in %.

Below, each entry is followed by its recorded Post-emergence efficacy against PHBPU in % result.
O=S(=O)(CCCC(F)(F)F)Oc1c(F)cccc1Oc1ncc(F)cn1 [Example I-42] ... 100
O=S(=O)(CCCCl)Oc1c(F)cccc1Oc1ncc(Cl)cn1 [Example I-14] ... 100
O=S(=O)(CCCC(F)(F)F)Oc1c(Cl)cccc1Oc1ncc(Br)cn1 [Example I-34] ... 80
O=S(=O)(CCCC(F)(F)F)Oc1ccccc1Oc1ncc(Cl)cn1 [Example I-10] ... 100
O=S(=O)(CCC(F)(F)F)Oc1c(F)cccc1Oc1ncc(Br)cn1 [Example I-40] ... 100

Give me Post-emergence efficacy against PHBPU in % for each of these molecules, listed below.
1. O=S(=O)(CCC(F)(F)F)Oc1c(Br)cccc1Oc1ncc(F)cn1 [Example I-43]
2. CCCCS(=O)(=O)Oc1ccccc1Oc1ncc(Cl)cn1 [Example I-6]
3. O=S(=O)(CCC1CC1)Oc1c(F)cccc1Oc1ncc(Cl)cn1 [Example I-55]
4. O=S(=O)(CCCC(F)(F)F)Oc1c(Cl)cccc1Oc1ncc(Cl)cn1 [Example I-39]
5. O=S(=O)(CCCC(F)(F)C(F)(F)F)Oc1c(F)cccc1Oc1ncc(Cl)cn1 [Example I-68]
6. Cc1cccc(OS(=O)(=O)CCCCl)c1Oc1ncc(Cl)cn1 [Example I-12]

A.
1. 80
2. 80
3. 90
4. 90
5. 80
6. 90

Give me Post-emergence efficacy against PHBPU in % for each of these molecules, listed below.
1. O=S(=O)(CCCC(F)F)Oc1c(F)cccc1Oc1ncc(Cl)cn1 [Example I-56]
2. O=S(=O)(CCC(F)(F)F)Oc1c(Cl)cccc1Oc1ncc(Cl)cn1 [Example I-38]
3. N#Cc1cccc(Oc2ncc(Cl)cn2)c1OS(=O)(=O)CC1CC1(Cl)Cl (stereo not shown) [Example I-78]
4. O=S(=O)(CCC(F)(F)F)Oc1c(F)cccc1Oc1ncc(Cl)cn1 [Example I-48]
5. C=CCCS(=O)(=O)Oc1c(F)cccc1Oc1ncc(Cl)cn1 [Example I-50]
6. Cc1cccc(Oc2ncc(Cl)cn2)c1OS(=O)(=O)CCC(F)=C(F)F [Example I-71]

A.
1. 100
2. 100
3. 90
4. 100
5. 90
6. 80

Give me Post-emergence efficacy against PHBPU in % for each of these molecules, listed below.
1. O=S(=O)(CCC(F)(F)F)Oc1c(F)cccc1Oc1ncc(F)cn1 [Example I-47]
2. O=S(=O)(CCCC(F)(F)F)Oc1c(F)cccc1Oc1ncc(Cl)cn1 [Example I-49]

A.
90
100

----------
# Tested on: Abutilon theophrasti (ABUTH)
# MEASUREMENT_NOTES: C. Herbicidal pre-emergence efficacy, ABUTH
# Assay type: in vivo
# RECORDED_CONDITIONS: 80 g/ha, scored after about 3 weeks
Provide the recorded Pre-emergence efficacy against ABUTH for the entries that follow.
Numbers only, in %.

Below, each entry is followed by its recorded Pre-emergence efficacy against ABUTH result.
Cc1cccc(Oc2ncc(F)cn2)c1OS(=O)(=O)CCCC(F)(F)F ... 100
O=S(=O)(CCCC(F)(F)C(F)(F)F)Oc1c(F)cccc1Oc1ncc(Cl)cn1 ... 100
Cc1cccc(Oc2ncc(F)cn2)c1OS(=O)(=O)CCC(F)(F)F ... 100
O=S(=O)(CCC(F)=C(F)F)Oc1c(F)cccc1Oc1ncc(Cl)cn1 ... 80

Alright, here's another molecule for you.
Q. GET /values?readout=Pre-emergence efficacy against ABUTH&item= O=S(=O)(CC1CC1)Oc1ccccc1Oc1ncc(Cl)cn1
A. 100
